# measured on: T1, glucose-dependent insulinotropic peptide (gastric inhibitory polypeptide) receptor (GIPR), primary cAMP assay … (human, UniProt P48546 22-466)
# T1 sequence (looked up): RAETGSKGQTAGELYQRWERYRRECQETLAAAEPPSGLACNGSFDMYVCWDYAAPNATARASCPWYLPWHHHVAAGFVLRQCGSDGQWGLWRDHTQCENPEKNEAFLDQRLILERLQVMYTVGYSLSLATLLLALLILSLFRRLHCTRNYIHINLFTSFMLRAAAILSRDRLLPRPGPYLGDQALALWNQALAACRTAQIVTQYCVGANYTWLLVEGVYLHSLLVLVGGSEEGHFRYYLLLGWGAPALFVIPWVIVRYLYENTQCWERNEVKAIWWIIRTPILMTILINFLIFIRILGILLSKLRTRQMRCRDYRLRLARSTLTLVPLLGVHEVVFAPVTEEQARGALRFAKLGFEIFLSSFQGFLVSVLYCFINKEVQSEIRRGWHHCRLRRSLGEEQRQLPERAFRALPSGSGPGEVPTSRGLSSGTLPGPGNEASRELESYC
# assay: cell-based or functional assay
Starred links: 1 amine or outer side, 2 acyl side, 3 side chain; linkers in the order of their positions; H or OH if unused. Non-standard residues stand in square brackets, D forms with d. Groups on a side chain read outwards from the residue. Primed or numbered codes have the meaning given here. No end group written: not given here. *: point of attachment. γGlu = O=C(O)[C@H](CCC(=O)[*:2])N[*:1]; αMeF = C[C@](N)(Cc1ccccc1)C(=O)O; αMeK = C[C@](N)(CCCCN)C(=O)O; Lauroyl = CCCCCCCCCCCC(=O)*; αMeS = C[C@](N)(CO)C(=O)O; PEG2′ = not defined here; Aib = CC(C)(N)C(=O)O
measurement name: cAMP Primary assay EC50, n1 (nM)

H[Aib]EGS[αMeF]TSDV[αMeS]SYK([PEG2′-PEG2′-γGlu-Lauroyl])EGK([PEG2′-PEG2′-γGlu-Lauroyl])AA[αMeK]EFIK([PEG2′-PEG2′-γGlu-Lauroyl])FVVEGG-NH2 [SEQ ID NO: 452] ... 19.5
H[Aib]EGS[αMeF]TSDV[αMeS]SK([PEG2′-PEG2′-γGlu-Lauroyl])LEGEAA[αMeK]K([PEG2′-PEG2′-γGlu-Lauroyl])FIK([PEG2′-PEG2′-γGlu-Lauroyl])FVVEGG-NH2 [SEQ ID NO: 450] ... 19.9
H[Aib]EGS[αMeF]TSDVSK([PEG2′-PEG2′-γGlu-Lauroyl])YLEGK([PEG2′-PEG2′-γGlu-Lauroyl])AA[αMeK]EFIAK([PEG2′-PEG2′-γGlu-Lauroyl])VVEGG-NH2 [SEQ ID NO: 460] ... 20
H[Aib]EGS[αMeF]TSDK([PEG2′-PEG2′-γGlu-Lauroyl])SSYLEGEK([PEG2′-PEG2′-γGlu-Lauroyl])A[αMeK]EFIAK([PEG2′-PEG2′-γGlu-Lauroyl])VVEGG-NH2 [SEQ ID NO: 457] ... 19.8
H[Aib]EGS[αMeF]TSDK([PEG2′-PEG2′-γGlu-Lauroyl])SSYLEGEAA[αMeK]K([PEG2′-PEG2′-γGlu-Lauroyl])FIK([PEG2′-PEG2′-γGlu-Lauroyl])FVVEGG-NH2 [SEQ ID NO: 442] ... 19.7
H[Aib]EGS[αMeF]TSDV[αMeS]SYK([PEG2′-PEG2′-γGlu-Lauroyl])EK([PEG2′-PEG2′-γGlu-Lauroyl])EAA[αMeK]EFIK([PEG2′-PEG2′-γGlu-Lauroyl])FVVEGG-NH2 [SEQ ID NO: 451] ... 19.7
H[Aib]EGS[αMeF]TSDVSK([PEG2′-PEG2′-γGlu-Lauroyl])YLEGEK([PEG2′-PEG2′-γGlu-Lauroyl])A[αMeK]EFIAK([PEG2′-PEG2′-γGlu-Lauroyl])VVEGG-NH2 [SEQ ID NO: 461] ... 19.8
H[Aib]EGS[αMeF]TSDK([PEG2′-PEG2′-γGlu-Lauroyl])SSYLEGEK([PEG2′-PEG2′-γGlu-Lauroyl])A[αMeK]EFIAFK([PEG2′-PEG2′-γGlu-Lauroyl])VEGG-NH2 [SEQ ID NO: 473] ... 19.6
H[Aib]EGS[αMeF]TSDK([PEG2′-PEG2′-γGlu-Lauroyl])SSYLEGK([PEG2′-PEG2′-γGlu-Lauroyl])AA[αMeK]EFIAFK([PEG2′-PEG2′-γGlu-Lauroyl])VEGG-NH2 [SEQ ID NO: 472] ... 19.9
